Tested on: RARa homodimer (NR concentration 270 nM)
assaySummary: PBM binding z-score (relative to random genomic background probes); higher = stronger binding; sequences stand for … in GC…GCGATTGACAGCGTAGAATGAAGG

| biosequence | assayedTarget | PBM binding z-score |
| --- | --- | --- |
| TAGCCTGGGTCATGGGCCAGTATACCACGCGAAC | RARa homodimer (NR concentration 270 nM) | -0.797 |
| TCATATAGTTAAAAGGTGAAAGTCGGTGTGGTAA | RARa homodimer (NR concentration 270 nM) | 2.03 |
| CAAATTAGGTCAAGGTCAAAGTCGGTTTGTGCCA | RARa homodimer (NR concentration 270 nM) | 4.26 |
| AATACAGGGTCATTGTAGGCCAGAGTACGCACAG | RARa homodimer (NR concentration 270 nM) | 0.607 |
| TAGCCTAGGTCATTCAGGGGACAGTATAGAAAGC | RARa homodimer (NR concentration 270 nM) | 0.228 |
| GCGACTGGTGCATCAGCAGGTTACCATAACTTAA | RARa homodimer (NR concentration 270 nM) | -1.22 |
| ACTATTAGTTGAGACAAGGGCAACCGATAGGTTG | RARa homodimer (NR concentration 270 nM) | 0.821 |
| TCATATAGGTAATACAGGTGAAAGGCGGCATCTA | RARa homodimer (NR concentration 270 nM) | 1.69 |
| ATCGAGAGGTCGAGGTGAGTATAGAGAAAGGGAA | RARa homodimer (NR concentration 270 nM) | -0.363 |
| AGAACGAGGGCACGCTGCGTTGATAGCAGAGTAG | RARa homodimer (NR concentration 270 nM) | -0.962 |
| CCCACTGGGCCAAGGTCATTGATCAGTCAAAGCA | RARa homodimer (NR concentration 270 nM) | -0.0237 |
| CTCGAAAGGTCGGTTGAGGTGATTATACGGATAA | RARa homodimer (NR concentration 270 nM) | 0.287 |
| CGAACTAGGTCATTGGCAGGACAGTGAATAGTAA | RARa homodimer (NR concentration 270 nM) | 0.516 |
| CCGAGTAGGTTATGGGGCATTCCGGCAACGGTGA | RARa homodimer (NR concentration 270 nM) | 0.0897 |
| ATCGAAAGGTAGTGAGGTGAGTATACAGAAAGGC | RARa homodimer (NR concentration 270 nM) | 0.18 |
| TCTTGTAGATCAATAGAGGTTAAGTAAGTGCGCT | RARa homodimer (NR concentration 270 nM) | 0.239 |
| TAAGACAGGTGAAGGTAACTCAGGTACGCAGTCG | RARa homodimer (NR concentration 270 nM) | 0.631 |
| ATCGAAAGGTCGAACGTGAGTATACCCACCCGAA | RARa homodimer (NR concentration 270 nM) | 0.171 |
| CGAACTAGGTCAAAGGTCAAAGTCGAGCCAACCA | RARa homodimer (NR concentration 270 nM) | 3.32 |
| CCTACTGGGCCAAGGTTATTGATCAGTCAAAGCA | RARa homodimer (NR concentration 270 nM) | -0.486 |
| CCGACTGGGGCAGAAAGGTTGCCATACCATCCGG | RARa homodimer (NR concentration 270 nM) | -0.964 |
| ACTATTAGTTGACTTAGGGCATCCGATACGACGC | RARa homodimer (NR concentration 270 nM) | 0.624 |
| AGTATGAGGTTACCAAAGATCAGGGAAACGCTTG | RARa homodimer (NR concentration 270 nM) | 0.475 |
| CGTCCAAGGTCAATGCTGGGTCAGTGAAAGCATT | RARa homodimer (NR concentration 270 nM) | 0.99 |
| CGAACTAGGTCAAGGTCAGTGAATCTCCGCACGC | RARa homodimer (NR concentration 270 nM) | 1.62 |
| TCTATTAGTTGAACGGCAACCGACGAGTCCGTTT | RARa homodimer (NR concentration 270 nM) | 0.868 |
| TCGAGTAGGTTAGTCTGGGCATTCAGCCAACATA | RARa homodimer (NR concentration 270 nM) | -0.668 |
| TCTTGTAGATCAAAGGTAAAGAAAGCCGAAGCCT | RARa homodimer (NR concentration 270 nM) | -0.116 |
| GCTACTAGTTGAAAGGGCAACCGAATGATTCTCG | RARa homodimer (NR concentration 270 nM) | -0.371 |
| CCTAGTTGGTCAGGAGGTTACACACCGGATATGA | RARa homodimer (NR concentration 270 nM) | 0.725 |
| AGTCAAAGTTCAGGACGAGGTAACGTAAAGCACG | RARa homodimer (NR concentration 270 nM) | 0.702 |
| CCTACTGGGCCACGAAAGCTCATTGATTCAGTGA | RARa homodimer (NR concentration 270 nM) | -0.375 |
| CAGACTAGGTCAAGAGGTCAAAGTCCGCTTCCCG | RARa homodimer (NR concentration 270 nM) | 0.913 |
| TGAATGAGGTTAAAGATCCGGGAACGTGGCGTCG | RARa homodimer (NR concentration 270 nM) | -0.669 |
| TCGGCTAGGTCAGTTGGTCAGCTAACGAGCTGCC | RARa homodimer (NR concentration 270 nM) | -0.561 |
| CAAACTAGGTCACAGGAAGGTCAAAGTCCGCATG | RARa homodimer (NR concentration 270 nM) | 2.2 |
| CCTCGGAGGACAACAGGAGGTAAGAGCTGCCAGA | RARa homodimer (NR concentration 270 nM) | 0.0272 |
| TAGCCCAGGTCATTCAGGGGCCAGTATAGAAAGC | RARa homodimer (NR concentration 270 nM) | 0.0689 |
| CCGACTCGGGCAAAGGTTACCATACTCAGTACGA | RARa homodimer (NR concentration 270 nM) | 0.537 |
| ACTCGGAGGACAAAGGACAGAGCTACGCCAGTGA | RARa homodimer (NR concentration 270 nM) | -0.7 |
| CCTACTGGGCCATTCAGAGGTGATTGATCATATG | RARa homodimer (NR concentration 270 nM) | 0.129 |
| ATAGGTAGGTTAGCTGGGGTCATTCAGACTAGGC | RARa homodimer (NR concentration 270 nM) | 1.73 |
| TTACCAAGGTGAGCAGAGGTCGTTGATCCAACTC | RARa homodimer (NR concentration 270 nM) | -0.99 |
| TCTAGTAGATCAATAGAGGTTAAGAAAGTGCGCT | RARa homodimer (NR concentration 270 nM) | 0.23 |
| TAGCCTAGGTCCGATCGGGCCAGTATACGCTATA | RARa homodimer (NR concentration 270 nM) | -1.53 |
| ACTAGTTGGTCAGCTGAGGTCACATACAATTCGG | RARa homodimer (NR concentration 270 nM) | 0.305 |
| CCGACTGGGGCAGAAAGGTTTCCATACCATCCGG | RARa homodimer (NR concentration 270 nM) | -1.09 |
| CCTACTGCGCCAAGGTCATTGATCAGTCAAAGCA | RARa homodimer (NR concentration 270 nM) | 1.07 |
| CCTTACGGGTCACGAGGTTATGGCACGACGAGCG | RARa homodimer (NR concentration 270 nM) | 0.689 |
| TCTATTAGTTGAAGTGCAACCGACGAGTCCGTTT | RARa homodimer (NR concentration 270 nM) | 0.781 |
| GCGACTGGGGCATCAGCAGGTTACGATAACTTAA | RARa homodimer (NR concentration 270 nM) | -0.452 |

Data origin, for the record: the supplement of paper PMC6555819
